Provide the recorded total impurities (%) for the entries that follow.
- test summary: Stability test (2): salt crystalline forms at high temperature, high humidity and light, detection by HPLC and XRPD
- Format: physicochemical
- experimental context: HPLC; light (RT, white light 6980 lux, UV 282 μW/cm2), 5 days
Numbers only, in %.

[[record]]
molecule = "Cc1ccc(S(=O)(=O)O)cc1.O=C(NS(=O)(=O)c1ccc(NC[C@H]2COCCO2)c([N+](=O)[O-])c1)c1ccc(N2CCN(CC3=C(c4ccc(Cl)cc4)CC4(CCC4)CC3)CC2)cc1Oc1cnc2[nH]ccc2c1 [XXIX]"
value_reported = 0.64


Please examine the following record next.
Fill in total impurities (%) for record O=C(NS(=O)(=O)c1ccc(NC[C@H]2COCCO2)c([N+](=O)[O-])c1)c1ccc(N2CCN(CC3=C(c4ccc(Cl)cc4)CC4(CCC4)CC3)CC2)cc1Oc1cnc2[nH]ccc2c1.O=C(O)CC(O)(CC(=O)O)C(=O)O [XXXIX]
0.88

====

- test summary: Stability test (2): salt crystalline forms at high temperature, high humidity and light, detection by HPLC and XRPD
- Assay type: physicochemical
- experimental context: HPLC; the initial sample, 0 day
Provide the recorded total impurities (%) for the entries that follow.
Answers are plain numbers, in %.

Would you please look over these solved cases?
[[record]]
molecule = "O=C(NS(=O)(=O)c1ccc(NC[C@H]2COCCO2)c([N+](=O)[O-])c1)c1ccc(N2CCN(CC3=C(c4ccc(Cl)cc4)CC4(CCC4)CC3)CC2)cc1Oc1cnc2[nH]ccc2c1.O=S(=O)(O)c1ccccc1"
measure_unit = "%"
value_reported = 1.19

[[record]]
molecule = "CS(=O)(=O)O.O=C(NS(=O)(=O)c1ccc(NC[C@H]2COCCO2)c([N+](=O)[O-])c1)c1ccc(N2CCN(CC3=C(c4ccc(Cl)cc4)CC4(CCC4)CC3)CC2)cc1Oc1cnc2[nH]ccc2c1"
measure_unit = "%"
value_reported = 0.67

[[record]]
molecule = "Cc1ccc(S(=O)(=O)O)cc1.O=C(NS(=O)(=O)c1ccc(NC[C@H]2COCCO2)c([N+](=O)[O-])c1)c1ccc(N2CCN(CC3=C(c4ccc(Cl)cc4)CC4(CCC4)CC3)CC2)cc1Oc1cnc2[nH]ccc2c1"
measure_unit = "%"
value_reported = 0.65

[[record]]
molecule = "O=C(NS(=O)(=O)c1ccc(NC[C@H]2COCCO2)c([N+](=O)[O-])c1)c1ccc(N2CCN(CC3=C(c4ccc(Cl)cc4)CC4(CCC4)CC3)CC2)cc1Oc1cnc2[nH]ccc2c1.O=C(O)/C=C\\C(=O)O"
measure_unit = "%"
value_reported = 0.50

[[record]]
molecule = "O=C(NS(=O)(=O)c1ccc(NC[C@H]2COCCO2)c([N+](=O)[O-])c1)c1ccc(N2CCN(CC3=C(c4ccc(Cl)cc4)CC4(CCC4)CC3)CC2)cc1Oc1cnc2[nH]ccc2c1.O=C(O)CC(O)(CC(=O)O)C(=O)O"
measure_unit = "%"
value_reported = 0.76


Fill in total impurities (%) for record O=C(NS(=O)(=O)c1ccc(NC[C@H]2COCCO2)c([N+](=O)[O-])c1)c1ccc(N2CCN(CC3=C(c4ccc(Cl)cc4)CC4(CCC4)CC3)CC2)cc1Oc1cnc2[nH]ccc2c1.O=S(=O)(O)O
0.80

====

Provide the recorded total impurities (%) for the entries that follow.
- test summary: Stability test (2): salt crystalline forms at high temperature, high humidity and light, detection by HPLC and XRPD
- Assay type: physicochemical
- experimental context: HPLC; RT/75% RH (open), 5 days
Numbers only, in %.

Would you please look over these solved cases?
[[record]]
molecule = "O=C(NS(=O)(=O)c1ccc(NC[C@H]2COCCO2)c([N+](=O)[O-])c1)c1ccc(N2CCN(CC3=C(c4ccc(Cl)cc4)CC4(CCC4)CC3)CC2)cc1Oc1cnc2[nH]ccc2c1.O=S(=O)(O)O [XXX]"
endpoint_label = "total impurities (%)"
measure_unit = "%"
value_reported = 0.82

[[record]]
molecule = "O=C(NS(=O)(=O)c1ccc(NC[C@H]2COCCO2)c([N+](=O)[O-])c1)c1ccc(N2CCN(CC3=C(c4ccc(Cl)cc4)CC4(CCC4)CC3)CC2)cc1Oc1cnc2[nH]ccc2c1.O=C(O)/C=C\\C(=O)O [XXIV]"
endpoint_label = "total impurities (%)"
measure_unit = "%"
value_reported = 0.50

[[record]]
molecule = "CS(=O)(=O)O.O=C(NS(=O)(=O)c1ccc(NC[C@H]2COCCO2)c([N+](=O)[O-])c1)c1ccc(N2CCN(CC3=C(c4ccc(Cl)cc4)CC4(CCC4)CC3)CC2)cc1Oc1cnc2[nH]ccc2c1 [XXXIII]"
endpoint_label = "total impurities (%)"
measure_unit = "%"
value_reported = 0.67

[[record]]
molecule = "O=C(NS(=O)(=O)c1ccc(NC[C@H]2COCCO2)c([N+](=O)[O-])c1)c1ccc(N2CCN(CC3=C(c4ccc(Cl)cc4)CC4(CCC4)CC3)CC2)cc1Oc1cnc2[nH]ccc2c1.O=S(=O)(O)c1ccccc1 [XXVII]"
endpoint_label = "total impurities (%)"
measure_unit = "%"
value_reported = 1.22

[[record]]
molecule = "Cc1ccc(S(=O)(=O)O)cc1.O=C(NS(=O)(=O)c1ccc(NC[C@H]2COCCO2)c([N+](=O)[O-])c1)c1ccc(N2CCN(CC3=C(c4ccc(Cl)cc4)CC4(CCC4)CC3)CC2)cc1Oc1cnc2[nH]ccc2c1 [XXIX]"
endpoint_label = "total impurities (%)"
measure_unit = "%"
value_reported = 0.65


Please examine the following record next.
Fill in total impurities (%) for record O=C(NS(=O)(=O)c1ccc(NC[C@H]2COCCO2)c([N+](=O)[O-])c1)c1ccc(N2CCN(CC3=C(c4ccc(Cl)cc4)CC4(CCC4)CC3)CC2)cc1Oc1cnc2[nH]ccc2c1.O=C(O)CC(O)(CC(=O)O)C(=O)O [XXXIX]
0.80
